# TESTED SYSTEM: USP1 (construct USP1 (I-785, GG670, 671AA)/UAF1 (I-677)-Flag) (Homo sapiens (Human), UniProt O94782, G670A/G671A)
# Sequence (O94782 whole entry G670A/G671A): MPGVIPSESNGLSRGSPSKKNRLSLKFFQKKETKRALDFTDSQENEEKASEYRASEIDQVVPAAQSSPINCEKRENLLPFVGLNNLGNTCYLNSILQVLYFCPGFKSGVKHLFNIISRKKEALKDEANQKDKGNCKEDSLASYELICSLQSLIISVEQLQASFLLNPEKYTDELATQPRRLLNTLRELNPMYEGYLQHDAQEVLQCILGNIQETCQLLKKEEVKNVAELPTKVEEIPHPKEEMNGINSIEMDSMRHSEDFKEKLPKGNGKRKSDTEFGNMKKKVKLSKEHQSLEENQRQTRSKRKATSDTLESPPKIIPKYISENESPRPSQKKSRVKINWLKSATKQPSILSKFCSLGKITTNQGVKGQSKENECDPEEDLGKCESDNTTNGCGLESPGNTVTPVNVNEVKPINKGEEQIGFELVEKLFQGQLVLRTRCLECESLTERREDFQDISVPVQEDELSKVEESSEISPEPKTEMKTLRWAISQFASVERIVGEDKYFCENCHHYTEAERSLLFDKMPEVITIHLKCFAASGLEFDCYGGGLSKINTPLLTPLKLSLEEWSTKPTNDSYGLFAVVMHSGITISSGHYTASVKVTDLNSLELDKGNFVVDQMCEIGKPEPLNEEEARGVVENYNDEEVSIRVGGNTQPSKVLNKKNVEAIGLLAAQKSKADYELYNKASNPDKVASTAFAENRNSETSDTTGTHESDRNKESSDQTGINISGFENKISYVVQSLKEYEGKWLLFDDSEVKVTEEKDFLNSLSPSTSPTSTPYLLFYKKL
# Sequence (Q8TAF3 whole entry partner): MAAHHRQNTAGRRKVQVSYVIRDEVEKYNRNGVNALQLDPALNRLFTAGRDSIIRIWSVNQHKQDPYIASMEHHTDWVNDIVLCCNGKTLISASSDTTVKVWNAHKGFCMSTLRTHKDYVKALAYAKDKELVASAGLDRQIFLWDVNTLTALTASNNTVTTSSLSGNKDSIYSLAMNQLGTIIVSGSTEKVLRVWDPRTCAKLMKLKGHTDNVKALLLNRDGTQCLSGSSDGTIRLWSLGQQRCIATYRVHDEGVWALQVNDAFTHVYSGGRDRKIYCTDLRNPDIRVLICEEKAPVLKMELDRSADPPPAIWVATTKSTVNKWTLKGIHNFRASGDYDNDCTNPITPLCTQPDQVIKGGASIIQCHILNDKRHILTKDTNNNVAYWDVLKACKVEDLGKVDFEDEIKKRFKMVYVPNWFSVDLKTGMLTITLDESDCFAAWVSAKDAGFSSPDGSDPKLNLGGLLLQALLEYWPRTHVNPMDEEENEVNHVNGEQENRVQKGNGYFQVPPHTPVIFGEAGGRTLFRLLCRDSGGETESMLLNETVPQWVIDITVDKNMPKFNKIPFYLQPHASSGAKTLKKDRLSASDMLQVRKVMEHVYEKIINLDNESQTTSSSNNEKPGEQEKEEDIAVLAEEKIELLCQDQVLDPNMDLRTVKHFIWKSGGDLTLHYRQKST
# PROTOCOL: Ubiquitin-Rhodamine 110 assay for USP1 activity
# CONDITION DESCRIPTION: USP1/UAF1 25 pM, Ub-Rh110 25 nM, 30 min preincubation
# Experimental: Example 53: Ubitquin-Rhodamine 110 Assay for USP1 Activity […] Nanoliter quantities of either an 8-point or 10-point, 3-fold serial dilution in DMSO was pre-dispensed into assay plates (Perkin Elmer, ProxiPlate-384 F Plus, #6008269) for a final test concentration range of either 25 μM to 11 nM or 25 μM to 1.3 nM, respectively. […] Fluorescence was read on the Envision (Excitation at 485 nm and Emission at 535 nm; Perkin Elmer) or on the PheraSTAR (Excitation at 485 nm and Emission at 535 nm; BMG Labtech). […]
pIC50: −log10 of the molar value.
Measured pIC50 values are reported for all entries that follow.

[
  {
    "COMPOUND": "CC(O)c1ccccc1-c1ncc2[nH]c(=O)n(Cc3ccc(-c4nc(C(F)(F)F)cn4C)cc3)c2n1 (stereo not shown) [Compound I-544]",
    "pIC50": "6.70 to 7.30"
  },
  {
    "COMPOUND": "CC(C)c1ccccc1-c1ncc2[nH]c(=O)n(Cc3ccc(C(=O)N[C@@H]4CCC[C@@H]4O)cc3)c2n1 [Compound I-387]",
    "pIC50": "6.70 to 7.30"
  },
  {
    "COMPOUND": "CC(C)c1ccccc1-c1ncc2c(n1)n(Cc1ccc(-c3cnnn3C)cc1)c(=O)n2C [Compound I-285]",
    "pIC50": "5.70 to 6.70"
  },
  {
    "COMPOUND": "O=c1[nH]c2cnc(-c3cccnc3OC(F)F)nc2n1Cc1ccc(-n2nccn2)cc1 [Compound I-4]",
    "pIC50": "< 5.70"
  },
  {
    "COMPOUND": "Cn1cc(C(F)(F)F)nc1-c1ccc(Cn2c(=O)[nH]c3cnc(-c4cccc5c4OC(F)(F)O5)nc32)cc1 [Compound I-36]",
    "pIC50": "5.70 to 6.70"
  },
  {
    "COMPOUND": "CC(C)c1ncccc1-c1ncc2[nH]c(=O)n(Cc3ccc(-c4nc(C(F)F)cn4C)cc3)c2n1 [Compound I-87]",
    "pIC50": "6.70 to 7.30"
  },
  {
    "COMPOUND": "CC(C)c1ncccc1-c1ncc2c(n1)n(Cc1ccc(-c3nc(C(F)(F)F)cn3C)c(F)c1)c(=O)n2C [Compound I-126]",
    "pIC50": "> 7.30"
  }
]

* * *

# TESTED SYSTEM: USP1 (construct USP1 (I-785, GG670, 671AA)/UAF1 (I-677)-Flag) (Homo sapiens (Human), UniProt O94782, G670A/G671A)
# PROTOCOL: Ubiquitin-Rhodamine 110 assay for USP1 activity
# CONDITION DESCRIPTION: USP1/UAF1 25 pM, Ub-Rh110 25 nM, 30 min preincubation
pIC50: −log10 of the molar value.

[
  {
    "COMPOUND": "CCNc1ncccc1-c1ncc2[nH]c(=O)n(Cc3ccc(-c4nc(C(F)(F)F)cn4C)cc3)c2n1",
    "pIC50": "> 7.30"
  },
  {
    "COMPOUND": "CC(C)c1ccccc1-c1ncc2[nH]c(=O)n(Cc3ncc(-n4cccn4)cn3)c2n1",
    "pIC50": "< 5.70"
  },
  {
    "COMPOUND": "CC(C)c1ccccc1-c1ncc2[nH]c(=O)n([C@H]3CC[C@@H]3c3ccc(-n4cccn4)cc3)c2n1",
    "pIC50": "5.70 to 6.70"
  },
  {
    "COMPOUND": "CC(C)NC(=O)N(C)c1ccc(Cn2c(=O)n(C)c3cnc(-c4ccccc4C(C)C)nc32)cc1",
    "pIC50": "5.70 to 6.70"
  },
  {
    "COMPOUND": "CC(C)c1ccccc1-c1ncc2c(n1)n(Cc1ccc(-n3ccc(C4CCNCC4)n3)cc1)c(=O)n2C",
    "pIC50": "5.70 to 6.70"
  },
  {
    "COMPOUND": "Cc1coc(-c2ccc(Cn3c(=O)n(C)c4cnc(-c5ccccc5C(C)C)nc43)cc2)n1",
    "pIC50": "> 7.30"
  },
  {
    "COMPOUND": "O=c1[nH]c2cnc(-c3cccnc3OCC(F)(F)F)nc2n1[C@@H]1CC[C@H]1c1ccc(-n2cccn2)cc1",
    "pIC50": "6.70 to 7.30"
  },
  {
    "COMPOUND": "CC(C)c1ccccc1-c1ncc2c(n1)n(Cc1ccc(-c3ccc(OCCN(C)C)cc3)cc1)c(=O)n2C",
    "pIC50": "6.70 to 7.30"
  },
  {
    "COMPOUND": "CO[C@@H](C)c1ccccc1-c1ncc2[nH]c(=O)n(Cc3ccc(-c4nc(C(F)(F)F)cn4C)cc3)c2n1",
    "pIC50": "> 7.30"
  },
  {
    "COMPOUND": "CC(C)c1ccccc1-c1ncc2c(n1)n(Cc1ccc(N(C)S(C)(=O)=O)cc1)c(=O)n2C",
    "pIC50": "5.70 to 6.70"
  },
  {
    "COMPOUND": "CC(C)c1ccccc1-c1ncc2[nH]c(=O)n(CC3CN(c4nccc(C(F)(F)F)n4)C3)c2n1",
    "pIC50": "< 5.70"
  },
  {
    "COMPOUND": "CC(C)c1ccccc1-c1ncc2c(n1)n(Cc1ccc(-c3ccccc3OCCN(C)C)cc1)c(=O)n2C",
    "pIC50": "> 7.30"
  },
  {
    "COMPOUND": "CC(C)c1ncccc1-c1ncc2[nH]c(=O)n(C3(c4ccc(-c5nc(C(F)(F)F)cn5C)cc4)CC3)c2n1",
    "pIC50": "> 7.30"
  },
  {
    "COMPOUND": "Cn1cc(C(F)(F)F)nc1-c1ccc(Cn2c(=O)n(C)c3cnc(-c4cccnc4C4CC4)nc32)cc1",
    "pIC50": "> 7.30"
  },
  {
    "COMPOUND": "CC(C)c1ccccc1-c1ncc2[nH]c(=O)n(Cc3ccc(-c4ncccn4)cc3)c2n1",
    "pIC50": "6.70 to 7.30"
  },
  {
    "COMPOUND": "CC(C)c1ccccc1-c1ncc2[nH]c(=O)n(Cc3ccc(-c4ncc(F)n4C)cc3)c2n1",
    "pIC50": "> 7.30"
  },
  {
    "COMPOUND": "CC(C)c1ccccc1-c1ncc2c(n1)n(Cc1ccc(-c3nc(C(F)(F)F)cn3CCO)cc1)c(=O)n2C",
    "pIC50": "> 7.30"
  },
  {
    "COMPOUND": "Cn1cc(C(F)(F)F)nc1-c1ccc(Cn2c(=O)[nH]c3cnc(-c4cccnc4OCC4CCCO4)nc32)cc1 (centres unmarked)",
    "pIC50": "> 7.30"
  },
  {
    "COMPOUND": "CC(C)c1ccccc1-c1ncc2[nH]c(=O)n(Cc3ccc(C(=O)N(C)C4CCCCC4)cc3)c2n1",
    "pIC50": "> 7.30"
  },
  {
    "COMPOUND": "CC(C)c1ccccc1-c1ncc2[nH]c(=O)n(Cc3ccc(-n4cc(CCO)nn4)cc3)c2n1",
    "pIC50": "5.70 to 6.70"
  },
  {
    "COMPOUND": "COCCN(C)c1ccc(Cn2c(=O)n(C)c3cnc(-c4ccccc4C(C)C)nc32)cc1",
    "pIC50": "5.70 to 6.70"
  },
  {
    "COMPOUND": "CC(C)c1ccccc1-c1ncc2[nH]c(=O)n(Cc3ccc(-n4ccc(N5CCN(C)CC5)n4)cc3)c2n1",
    "pIC50": "> 7.30"
  },
  {
    "COMPOUND": "CC(C)c1ccccc1-c1ncc2[nH]c(=O)n(Cc3ccc(-c4nc(Cl)cn4C)cc3)c2n1",
    "pIC50": "> 7.30"
  },
  {
    "COMPOUND": "CC(C)c1cnccc1-c1ncc2c(n1)n(Cc1ccc(-n3cccn3)cc1)c(=O)n2C",
    "pIC50": "< 5.70"
  },
  {
    "COMPOUND": "CC(C)c1ccccc1-c1ncc2c(n1)n(Cc1ccc(-c3nc(C(N)=O)n(C)n3)cc1)c(=O)n2C",
    "pIC50": "6.70 to 7.30"
  },
  {
    "COMPOUND": "COCCN(C(=O)c1ccc(Cn2c(=O)[nH]c3cnc(-c4ccccc4C(C)C)nc32)cc1)C(C)C",
    "pIC50": "6.70 to 7.30"
  },
  {
    "COMPOUND": "CC(C)c1ccccc1-c1ncc2[nH]c(=O)n(Cc3ccc(-c4cnn(C5CCNCC5)c4)cc3)c2n1",
    "pIC50": "5.70 to 6.70"
  },
  {
    "COMPOUND": "CC(C)c1ncccc1-c1ncc2[nH]c(=O)n(Cc3c(F)cc(-c4nc(C(F)(F)F)cn4C)cc3F)c2n1",
    "pIC50": "6.70 to 7.30"
  },
  {
    "COMPOUND": "CC(C)c1ccccc1-c1ncc2[nH]c(=O)n(Cc3ccc(C(=O)N4CCC[C@H]4C)cc3)c2n1",
    "pIC50": "> 7.30"
  }
]
